We begin with a simple list: items and their reported Inhibition.
- System: Acinetobacter baumannii
- experimental protocol: Antibacterial activity against Acinetobacter baumannii ATCC 19606 (CO-ADD:GN_034); MIC in CAMBH media using NBS plates, by Resazurin F(560/590)
- Type: functional
- conditions: Concentration 20 uM, ASSAY_TEST Inhibition of Bacterial Growth, detection method Resazurin, Fluorescence (ex560/em590), MEDIA CAMHB, plate type 384well, CORNING #3640, time 18 hr
Expressed in %, but write only the number.

The examples below pair each entry with its known result.
{"compound": "CN(C)Cc1c[nH]c2nccnc12", "Inhibition / %": -4.46}
{"compound": "CSC(=N)NS(=O)(=O)c1ccc(NC(C)=O)cc1", "Inhibition / %": -21.01}
{"compound": "COc1ccc2nc(-c3ccc(Cl)cc3)cc(C(=O)O)c2c1", "Inhibition / %": -6.37}
{"compound": "COc1ccc(Cc2nnc(SC)n2-c2ccc(F)cc2)cc1OC", "Inhibition / %": -2.89}
{"compound": "CCOCCc1c(O)nc(SC)nc1O", "Inhibition / %": -10.74}
{"compound": "N#CC1=C(Nc2ccccc2Cl)SC(c2ccccc2O)NC1=O (centres undefined)", "Inhibition / %": -8.74}

Continue with the compound presented below.
Quote Inhibition reported for Cc1ccc(/N=N/c2c(N)nn(-c3ccccc3)c2N)cc1 please.
-1.05
